- Target Or Test System: Platelet-activating factor receptor (Oryctolagus cuniculus)
- Experiment Summary: Inhibition of rabbit platelet aggregation induced by platelet activating factor (PAF)
Quantity: pIC50
Numbers only, as −log10 of the molar value.

Hi, could you look up pIC50 for each item in my list?
1. CCCCCCCCCCCCCCCCCCNC(=O)OCC(COC(=O)N(CCC[N+](C)(C)C)C(C)=O)OC (stereo not drawn)
2. CCCCCCCCCCCCCCCCCCNC(=O)OCC(COC(=O)N(Cc1cccc[n+]1CCC)C(C)=O)OC (stereo not drawn)
3. CCCCCCCCCCCCCCCCCCNC(=O)OCC(COC(=O)N(CC[N+](C)(C)C)C(C)=O)OC (stereo not drawn)
4. CCCCCCCCCCCCCCCCCCOCC(COC(=O)N(CC[N+](C)(C)C)C(C)=O)OC(C)=O (stereo not drawn)
5. CCCCCCCCCCCCCCCCCCNC(=O)OCC(COC(=O)N(Cc1csc[n+]1C)C(C)=O)OC (stereo not drawn)

Result ::
1: 5.07; 2: 7.03; 3: 5.82; 4: 6.06; 5: 7.00

Hi, could you look up pIC50 for each item in my list?
1. CCCCCCCCCCCCCCCCCCNC(=O)OCC(COC(=O)N(CC[N+](C)(C)C)C(=O)CCC)OC (stereo not drawn)
2. CCCCCCCCCCCCCCCCCCNC(=O)OCC(COC(=O)N(CC[N+]1(C)CCCC1)C(C)=O)OC (stereo not drawn)
3. CCCCCCCCCCCCCCCCCCNC(=O)OCC(COC(=O)N(CC[N+](C)(C)C)C(=O)CC)OC (stereo not drawn)
4. CCCCCCCCCCCCCCCCCCOCC(COC(=O)NCC[N+](C)(C)C)OC(C)=O (stereo not drawn)
5. CCCCCCCCCCCCCCCCCCNC(=O)OCC(COC(=O)NCC[N+](C)(C)C)OC (stereo not drawn)

Result ::
1. 5.11
2. 5.96
3. 5.25
4. 5.08
5. 4.85

Hi, could you look up pIC50 for each item in my list?
1. CCCCCCCCCCCCCCCCCCNC(=O)OCC(COC(=O)N(CC[N+](C)(C)C)C(=O)N1CCCC1)OC (stereo not drawn)
2. CCCCCCCCCCCCCCCCCCNC(=O)OCC(COC(=O)N(C)CC[N+](C)(C)C)OC (stereo not drawn)
3. CCCCCCCCCCCCCCCCCCNC(=O)OCC(COC(=O)N(CC[N+](C)(C)C)C(=O)N(C)C)OC (stereo not drawn)
4. CCCCCCCCCCCCCCCCCCNC(=O)OCC(COC(=O)N(CC[N+]1(C)CCOCC1)C(C)=O)OC (stereo not drawn)
5. CCCCCCCCCCCCCCCCCCNC(=O)OCC(COC(=O)N(CC[N+](C)(C)C)C(=O)OC)OC (stereo not drawn)

Result ::
1: 5.07; 2: 5.09; 3: 5.24; 4: 5.04; 5: 5.64

Hi, could you look up pIC50 for each item in my list?
1. CCCCCCCCCCCCCCCCCCNC(=O)OCC(COC(=O)N(Cc1csc[n+]1CC)C(C)=O)OC (stereo not drawn)
2. CCCCCCCCCCCCCCCCCCNC(=O)OCC(COC(=O)N(Cc1cccc[n+]1C)C(C)=O)OC (stereo not drawn)

Result ::
1. 7.04
2. 6.70
